- study-system: T1, MsmTOP1 full length (topoisomerase I) (Mycobacterium smegmatis mc2 155, UniProt A0R5D9 1-936)
- T1 sequence: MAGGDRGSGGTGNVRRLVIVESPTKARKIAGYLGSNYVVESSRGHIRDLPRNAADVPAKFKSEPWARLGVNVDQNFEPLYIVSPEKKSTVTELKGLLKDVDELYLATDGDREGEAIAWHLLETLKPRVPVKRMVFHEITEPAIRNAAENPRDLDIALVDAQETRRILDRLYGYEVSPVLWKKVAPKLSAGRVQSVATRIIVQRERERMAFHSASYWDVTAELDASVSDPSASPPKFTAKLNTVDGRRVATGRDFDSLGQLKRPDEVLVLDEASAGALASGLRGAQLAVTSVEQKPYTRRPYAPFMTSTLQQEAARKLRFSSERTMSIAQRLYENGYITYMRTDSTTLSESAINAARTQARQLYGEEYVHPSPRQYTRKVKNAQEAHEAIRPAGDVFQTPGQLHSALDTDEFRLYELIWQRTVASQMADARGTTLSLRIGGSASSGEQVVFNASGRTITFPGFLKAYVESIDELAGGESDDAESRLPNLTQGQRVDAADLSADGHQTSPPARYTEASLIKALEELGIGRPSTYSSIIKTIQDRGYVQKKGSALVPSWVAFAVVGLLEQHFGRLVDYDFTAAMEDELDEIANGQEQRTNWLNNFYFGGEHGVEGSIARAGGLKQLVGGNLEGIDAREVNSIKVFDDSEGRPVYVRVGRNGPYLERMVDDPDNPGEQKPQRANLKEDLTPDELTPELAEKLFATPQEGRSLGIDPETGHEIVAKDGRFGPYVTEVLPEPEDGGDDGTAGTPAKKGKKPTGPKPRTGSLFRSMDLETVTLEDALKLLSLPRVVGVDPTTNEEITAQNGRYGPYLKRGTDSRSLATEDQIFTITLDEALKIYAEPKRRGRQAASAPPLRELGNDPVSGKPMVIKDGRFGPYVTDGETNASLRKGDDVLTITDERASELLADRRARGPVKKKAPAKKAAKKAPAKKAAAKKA
- protocol-notes: fluorescence anisotropy; no Mg2+, 0.1 mM EDTA; Anisotropy: 50 mM Tris-HCl pH 7.5, 100 mM NaCl, 0.1 mM EDTA, room temperature; crystal: 0.1 M Tris-HCl pH 8.5, 1.5 M lithium sulfate, 16 C, protein:ssDNA 1:2
- test-settings: protein: recombinant; tags: His6-Mocr removed by TEV (N-terminal SNA left); label: 3' 6-carboxyfluorescein; single strand
parameter-measured: Kd

binder="CAGTGAGCGAGCTTCCGCTTGACATCCCAATA (ssDNA) [STS32]" data_value="0.3 nM"
